system: Staphylococcus aureus ATCC33591; test: Broth microdilution MIC in Mueller Hinton broth; assay type: cell-based; details: Staphylococcus aureus, ATCC33591, read-out: Minimum Inhibitory Concentration (MIC) Staphylococcus aureus ATCC33591
REPORTED METRIC: MIC

Previously resolved entries follow.
{"COMPOUND": "C=CC[N+]12CCC(CC1)C(NC(=O)CCCCCCCCCCC)C2 (centres unmarked)", "MEASUREMENT TARGET": "Staphylococcus aureus ATCC33591", "MIC": "> 125 µM"}
{"COMPOUND": "CCCCCCCCCCCCCCCC[N+]12CCC(CC1)C(NC(C)=O)C2 (centres unmarked)", "MEASUREMENT TARGET": "Staphylococcus aureus ATCC33591", "MIC": "> 125 µM"}
{"COMPOUND": "CCCCCCCCCCCC(=O)NC1C[N+]2(C)CCC1CC2 (centres unmarked)", "MEASUREMENT TARGET": "Staphylococcus aureus ATCC33591", "MIC": "> 125 µM"}
{"COMPOUND": "CCCCCCCCCCCCCC(=O)NC1C[N+]2(C)CCC1CC2 (centres unmarked)", "MEASUREMENT TARGET": "Staphylococcus aureus ATCC33591", "MIC": "100 µM"}

Data point: C=CC[N+]12CCC(CC1)C(NC(=O)CCCCCCCCCCCCC)C2 (centres unmarked) ; MIC = 50 µM

Data point: CCCCCCCCCCCCCC[N+]12CCC(CC1)C(NC(C)=O)C2 (centres unmarked) ; MIC = > 125 µM

Data point: CCCCCCCCCCCC[N+]12CCC(CC1)C(NC(C)=O)C2 (centres unmarked) ; MIC = > 125 µM

---

test system: Staphylococcus aureus ATCC33591; assay: Broth microdilution MIC in Mueller Hinton broth; format: cell-based; details: Staphylococcus aureus, ATCC33591, read-out: Minimum Inhibitory Concentration (MIC) Staphylococcus aureus ATCC33591
MIC values for the molecules below.
# number only, unit µM dropped from output

{"MOLECULE": "CCCCCCCCCCCCCCCC(=O)NC1C[N+]2(C)CCC1CC2 (stereo not shown)", "MEASUREMENT TARGET": "Staphylococcus aureus ATCC33591", "MIC / µM": 25}

Data point: C=CC[N+]12CCC(CC1)C(NC(=O)CCCCCCCCCCCCCCC)C2 (stereo not shown) ; MIC = 25
